Cited source: the supplement of paper PMC13380429

Tested on: Caco-2
Experiment: cell viability relative to DMSO; higher = less toxic
Details: 72 h; 10000 nM
Some molecules, each annotated with its measured cell viability.
Quick note: give the figure in %, leave out the unit.

Below, each entry is followed by its recorded cell viability result.
>  <molecule>
Cc1ccc(NC2=CC(=O)c3sc(C)nc3C2=O)cc1 [ryuvidine]

>  <test_readout>
cell viability

>  <reported_value>
0.9

$$$$
>  <molecule>
CC(C)[C@@]1(NC(=O)[C@@H]2C[C@@H]3c4cccc5[nH]cc(c45)C[C@H]3N(C)C2)O[C@@]2(O)[C@@H]3CCCN3C(=O)[C@H](Cc3ccccc3)N2C1=O [dihydroergocristine]

>  <test_readout>
cell viability

>  <reported_value>
91.7

$$$$
>  <molecule>
O=P(O)(NCCCl)NCCCl [palifosfamide]

>  <test_readout>
cell viability

>  <reported_value>
93.7

$$$$
>  <molecule>
NCCNS(=O)(=O)c1ccc(Cl)c2ccncc12 [CKI-7]

>  <test_readout>
cell viability

>  <reported_value>
86.1

$$$$

Query block: Param readout= cell viability; system= Caco-2; entry= CCS(=O)(=O)N1CC(CC#N)(n2cc(-c3ncnc4[nH]ccc34)cn2)C1 [baricitinib] ; returns value.
Result block: 99.7

Query block: Param readout= cell viability; system= Caco-2; entry= O=c1c(O)c(-c2ccc(O)c(O)c2)oc2cc(O)ccc12 [fisetin] ; returns value.
Result block: 92.8

----------
Test system: A549-ACE2 infected with SARS-CoV-2
Assay: morphology score (similarity to uninfected cells); higher = more like uninfected cells
Details: 3 µM; 24 h
Classification field: criterion met = morphology score at or over 0.3; criterion not met = morphology score under 0.3.

Reference set (6 entries):
>  <molecule>
CN(C)CCCN1c2ccccc2Sc2ccc(C(F)(F)F)cc21

>  <class_name>
criterion met

$$$$
>  <molecule>
C=C1C(=O)O[C@@H]2[C@H]3O[C@]3(C)CC/C=C(\C)CC[C@@H]12 [parthenolide-(alternate-stereo)]

>  <class_name>
criterion not met

$$$$
>  <molecule>
COc1ccccc1C1(O)CCN(CCCn2c3ccccc3c3ccccc32)CC1

>  <class_name>
criterion met

$$$$
>  <molecule>
CC(C)C[C@H](NC(=O)CNC(=O)c1cc(Cl)ccc1Cl)B1OC(=O)C(CC(=O)O)(CC(=O)O)O1 [ixazomib-citrate]

>  <class_name>
criterion not met

$$$$
>  <molecule>
O=C(c1ccc(/C=C/c2n[nH]c3ccccc23)cc1)N1CCNCC1

>  <class_name>
criterion met

$$$$
>  <molecule>
CC(C)(C)Cn1c(N)nc2ccc(-c3[nH]c(C(C)(C)C)nc3-c3ccc(F)cc3)nc21

>  <class_name>
criterion met

$$$$

Query block: API: above_or_equal(metric=morphology score, cutoff=0.3) for item CC(C)C[C@H](NC(=O)CNC(=O)c1cc(Cl)ccc1Cl)B1OC(=O)C(CC(=O)O)(CC(=O)O)O1 [MLN9708]
Result block: criterion not met

Query block: API: above_or_equal(metric=morphology score, cutoff=0.3) for item FC(F)(F)c1ccc(CNc2ccc(Cc3c[nH]c4ncc(Cl)cc34)cn2)cn1
Result block: criterion not met

----------
Some compounds, each annotated with its measured cell viability.
Tested on: Caco-2
Assay: cell viability relative to DMSO; higher = less toxic
Conditions: 72 h; 100 nM
Quick note: give the figure in %, leave out the unit.

Below, each entry is followed by its recorded cell viability result.
>  <compound>
CCOC(=O)[C@H](CCc1ccccc1)N[C@@H](C)C(=O)N(CC(=O)O)C1Cc2ccccc2C1

>  <cell viability, %>
98.2

$$$$
>  <compound>
CC(=O)N1CCC(NC(=O)c2ccc(F)cc2)CC1

>  <cell viability, %>
104

$$$$
>  <compound>
COc1ccc(-c2cc(=O)c3c(OC)c(OC)c(OC)c(OC)c3o2)cc1

>  <cell viability, %>
99

$$$$
>  <compound>
Cc1[nH]c(/C=C2\C(=O)Nc3ccc(S(=O)(=O)Cc4c(Cl)cccc4Cl)cc32)c(C)c1C(=O)N1CCC[C@@H]1CN1CCCC1

>  <cell viability, %>
104

$$$$
>  <compound>
COc1ccc2cc(-c3nc(-c4ccc([S+](C)[O-])cc4)[nH]c3-c3ccncc3)ccc2c1 (configuration not stated)

>  <cell viability, %>
108

$$$$
>  <compound>
O=C(/C=C/c1ccc(O)cc1)c1ccc(O)cc1O

>  <cell viability, %>
95.6

$$$$
>  <compound>
CS(=O)(=O)Nc1ccc2oc3c(OC(F)F)ccc(C(=O)Nc4c(Cl)cncc4Cl)c3c2c1

>  <cell viability, %>
92.2

$$$$
>  <compound>
CCCCCC(C)N (configuration not stated)

>  <cell viability, %>
95.9

$$$$

Query block: I'd like to know its cell viability. The compound in question is CC(=O)N(O)[C@@H]1c2cc(C#N)ccc2OC(C)(C)[C@H]1O
Result block: 93.1

Query block: I'd like to know its cell viability. The compound in question is FC(F)(F)c1ccc(CNc2ccc(Cc3c[nH]c4ncc(Cl)cc34)cn2)cn1
Result block: 98.2

Query block: I'd like to know its cell viability. The compound in question is O=C(O)CCCN1C(=O)c2cccc3cccc(c23)C1=O
Result block: 93.6

Query block: I'd like to know its cell viability. The compound in question is O=C(NCC(=O)N1CC[C@H](N[C@H]2CC[C@@](O)(c3ccc(-c4ncccn4)cn3)CC2)C1)c1cccc(C(F)(F)F)c1
Result block: 92.7

Query block: I'd like to know its cell viability. The compound in question is O=S(=O)(O)NC1CCCCC1
Result block: 85.7
